Overview of recorded Kd for various compounds
target: EgFABP1 (Echinococcus granulosus); construct: recombinant EgFABP1 from pET11b in E. coli, delipidated; assay: fluorescence titration of the anthroyloxy fatty acid with protein
Sequence (Q02970 whole entry): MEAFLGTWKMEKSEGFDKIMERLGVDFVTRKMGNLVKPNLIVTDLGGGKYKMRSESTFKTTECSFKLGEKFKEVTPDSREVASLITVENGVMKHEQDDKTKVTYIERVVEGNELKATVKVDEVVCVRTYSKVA
I'd appreciate it if you wrote the number followed by its unit.

COMPOUND	Kd
CCCCCCC(CCCCCCCCCCC(=O)O)OC(=O)c1c2ccccc2cc2ccccc12 (centres unmarked) [12AS, 12-(9-anthroyloxy)stearic acid]	120 nM

Now for another entry.
The value of Kd measured for the compound O=C(O)CCCCCCCCCCCCCCCOC(=O)c1c2ccccc2cc2ccccc12 [16AP, 16-(9-anthroyloxy)palmitic acid] turned out to be 13 nM

Ref: paper PMC3499409
